Values were extracted from paper PMC10485906.

- Protocol description: Liver microsome stability, human
- Format: in vitro ADME
- Cond: liver microsomes, over the assay time course (30 min), read-out: % remaining, human LMs
- Protocol: Human liver microsomes (HLMs, 20 mg/mL) and CD-1 mouse liver microsomes (MLMs, 20 mg/mL) were purchased from Xenotech. NADPH was purchased from Sigma-Aldrich and prepared in 10 mM stock solutions of distilled H2O (Invitrogen UltraPure). […] Quenched aliquots were then centrifuged at 12 500 g for 5–10 min, and the resulting supernatants were withdrawn and placed in LC-MS vials to be analyzed by LC-MS/MS (Agilent G6460C QQQ MS coupled with an Infinity II 1260 HPLC). […]
Measured property: remaining at 0.5 h, 3 µM

In the examples that follow, each entry is paired with its recorded remaining at 0.5 h, 3 µM.
O=C(O)CC(F)(F)C(=O)N1N=C(c2c(-c3ccc(Cl)cc3)c3ccccc3[nH]c2=O)CC1c1ccc(Cl)cc1 (stereo not drawn) [2i]: > 95%
NC(=O)CC(F)(F)C(=O)N1N=C(c2c(-c3ccc(Cl)cc3)c3ccccc3[nH]c2=O)CC1c1ccc(Cl)cc1 (stereo not drawn) [2k]: > 90%

Next compound, remaining at 0.5 h, 3 µM to be filled in.
What value of measured remaining at 0.5 h, 3 µM is listed for O=C(O)CCC(=O)N1N=C(c2c(-c3ccc(Cl)cc3)c3ccccc3[nH]c2=O)CC1c1ccc(Cl)cc1 (stereo not drawn) [2a] ?
> 95%

---

- Protocol description: Plasma stability, mouse
- Type: in vitro ADME
- Cond: male, BALB/C, mouse, mouse plasma; incubation up to 120 min; 3 μM; read-out: plasma stability T1/2, mouse
Measured property: half-life at 3 μM (min)
Numbers only here, please. The scale is min.

CC(C)OC(=O)CC(F)(F)C(=O)N1N=C(c2c(-c3ccc(Cl)cc3)c3ccccc3[nH]c2=O)CC1c1ccc(Cl)cc1 (stereo not shown): 37

Next compound, half-life at 3 μM to be filled in.
What value of measured half-life at 3 μM is listed for O=C(CC(F)(F)C(=O)N1N=C(c2c(-c3ccc(Cl)cc3)c3ccccc3[nH]c2=O)CC1c1ccc(Cl)cc1)OCC1CC1 (stereo not shown) ?
1.3

---

- System under test: GluN1/GluN2D (Rattus norvegicus, UniProt P35439+Q62645)
- Sequence (Q62645 28-1323, other chains not shown): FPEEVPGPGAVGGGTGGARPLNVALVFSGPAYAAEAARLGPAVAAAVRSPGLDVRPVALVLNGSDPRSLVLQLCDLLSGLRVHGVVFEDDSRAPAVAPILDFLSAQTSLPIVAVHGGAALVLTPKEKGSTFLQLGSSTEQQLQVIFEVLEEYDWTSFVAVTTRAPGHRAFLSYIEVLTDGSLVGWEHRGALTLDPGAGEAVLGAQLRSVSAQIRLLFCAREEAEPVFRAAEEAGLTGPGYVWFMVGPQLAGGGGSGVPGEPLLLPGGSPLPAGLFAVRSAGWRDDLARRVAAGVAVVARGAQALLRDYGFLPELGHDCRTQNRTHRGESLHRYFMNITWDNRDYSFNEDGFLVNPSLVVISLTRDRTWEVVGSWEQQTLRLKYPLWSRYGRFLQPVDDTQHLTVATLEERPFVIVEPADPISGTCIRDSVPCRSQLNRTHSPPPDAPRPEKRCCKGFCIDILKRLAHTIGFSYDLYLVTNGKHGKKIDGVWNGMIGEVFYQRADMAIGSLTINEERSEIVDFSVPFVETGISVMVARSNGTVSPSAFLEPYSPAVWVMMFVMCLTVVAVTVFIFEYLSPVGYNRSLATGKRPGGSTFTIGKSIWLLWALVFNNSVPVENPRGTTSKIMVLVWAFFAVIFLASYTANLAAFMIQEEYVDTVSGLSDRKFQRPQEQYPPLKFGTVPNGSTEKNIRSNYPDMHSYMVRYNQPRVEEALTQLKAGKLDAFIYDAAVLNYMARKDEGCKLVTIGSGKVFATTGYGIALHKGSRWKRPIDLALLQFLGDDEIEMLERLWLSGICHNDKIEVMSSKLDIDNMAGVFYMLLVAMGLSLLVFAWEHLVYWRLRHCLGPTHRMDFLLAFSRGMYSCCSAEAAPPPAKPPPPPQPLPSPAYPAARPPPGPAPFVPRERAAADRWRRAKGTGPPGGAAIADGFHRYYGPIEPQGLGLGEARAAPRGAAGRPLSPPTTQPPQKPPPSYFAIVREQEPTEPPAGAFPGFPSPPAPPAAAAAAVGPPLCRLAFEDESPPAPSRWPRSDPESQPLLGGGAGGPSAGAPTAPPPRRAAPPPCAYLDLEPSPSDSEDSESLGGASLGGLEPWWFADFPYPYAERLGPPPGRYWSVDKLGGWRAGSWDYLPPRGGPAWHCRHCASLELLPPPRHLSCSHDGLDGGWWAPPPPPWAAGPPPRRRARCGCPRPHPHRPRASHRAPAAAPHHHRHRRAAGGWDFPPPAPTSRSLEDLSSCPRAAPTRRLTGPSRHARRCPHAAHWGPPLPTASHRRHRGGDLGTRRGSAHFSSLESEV
- Protocol description: Whole-cell voltage-clamp recordings, HEK cells, GluN1/GluN2D (agonist dependence)
- Format: cell-based
- Cond: inhibitor preapplied; from kON and kOFF; supplement
- Description: We previously described the actions of the GluN2C/GluN2D-preferring negative allosteric modulator DQP-1105 as dependent on glutamate (but not glycine) binding, in that DQP-1105 affinity increases after GluN1/GluN2D NMDARs bind glutamate.[32] […] In addition, we evaluated how glutamate dependence affects inhibition of responses to brief agonist applications similar to phasic glutamate release that occurs at synapses. […]
Measured property: Kd (nM)
Numbers only here, please. The scale is nM.

Return Kd measured with GluN1/GluN2D (Rattus norvegicus, UniProt P35439+Q62645) given this compound: Cc1ccc2[nH]c(=O)c(C3=NN(C(=O)CCC(=O)O)C(c4ccc(Br)cc4)C3)c(-c3ccccc3)c2c1 (stereo not shown) [compound 1, reference compound]
400

---

- Protocol description: Brain homogenate tissue binding and stability (RED device)
- Format: in vitro ADME, mouse
- Cond: C57BL/6, mouse, brain homogenate (4 times diluted), pH 7.4, mouse brain tissue binding (free fraction in brain); read-out: % Unbound
Measured property: fraction unbound at 4 h, 5 µM
Note: the reply should be a number with no unit written.

NC(=O)N1c2ccccc2C=Cc2ccccc21 [Carbamazepine, reference compound]: 0.135

What value of measured fraction unbound at 4 h, 5 µM is listed for O=C(O)CCC(=O)N1N=C(c2c(-c3ccc(Cl)cc3)c3ccccc3[nH]c2=O)CC1c1ccc(Cl)cc1 (stereo not shown) [2a] ?
0.002

---

- Protocol description: Brain homogenate tissue binding and stability (RED device)
- Format: in vitro ADME, mouse
- Cond: C57BL/6, mouse, brain homogenate (4 times diluted), pH 7.4, mouse brain tissue binding, RED, 4 h; read-out: % Bound R2 (converted)
The reader will find reported fraction unbound at 4 h, 5 µM values listed item by item below.
Note: the reply should be a number with no unit written.

NC(=O)N1c2ccccc2C=Cc2ccccc21 [Carbamazepine, reference compound]: 0.14

What value of measured fraction unbound at 4 h, 5 µM is listed for O=C(O)CCC(=O)N1N=C(c2c(-c3ccc(Cl)cc3)c3ccccc3[nH]c2=O)CC1c1ccc(Cl)cc1 (stereo not shown) ?
0.002

---

- Protocol description: Mouse plasma and brain pharmacokinetics, IV administration
- Format: in vivo
- Cond: male, C57BL/6, mouse, brain, intravenous, 5 mg/kg, 5 mg/kg IV; 0.25 h; read-out: brain calculated concentration, individual (Group 1-3)
Measured property: concentration at 0.25 h (ng/g)
Numbers only here, please. The scale is ng/g.

What value of measured concentration at 0.25 h is listed for O=C(O)CC(F)(F)C(=O)N1N=C(c2c(-c3ccc(Cl)cc3)c3ccccc3[nH]c2=O)CC1c1ccc(Cl)cc1 (stereo not shown) ?
10.8

---

- Protocol description: Plasma stability, mouse
- Format: in vitro ADME
- Cond: male, BALB/C, mouse, mouse plasma; incubation up to 120 min; 3 μM; read-out: plasma stability T1/2, mouse
- Procedure: Human plasma (lithium heparin (LiHep) mixed, gender pooled, 0.2 μm filtered) and mouse plasma (BALB/C, LiHep mixed, male pooled, 0.2 μm filtered) were purchased from BioIVT. […] Quenched aliquots were then centrifuged at 15,000 g for 30–45 min, and the resulting supernatants (∼70 μL) were withdrawn and placed in LC-MS vials to be analyzed by LC-MS/MS (Agilent G6460C QQQ MS coupled with an Infinity II 1260 HPLC). […]
Measured property: half-life at 3 μM

In the examples that follow, each entry is paired with its recorded half-life at 3 μM.
CCOC(=O)CC(F)(F)C(=O)N1N=C(c2c(-c3ccc(Cl)cc3)c3ccccc3[nH]c2=O)CC1c1ccc(Cl)cc1 (stereo not shown): 0.07 h
CNC(=O)CC(F)(F)C(=O)N1N=C(c2c(-c3ccc(Cl)cc3)c3ccccc3[nH]c2=O)CC1c1ccc(Cl)cc1 (stereo not shown): > 2 h

What value of measured half-life at 3 μM is listed for O=C(O)CCC(=O)N1N=C(c2c(-c3ccc(Cl)cc3)c3ccccc3[nH]c2=O)CC1c1ccc(Cl)cc1 (stereo not shown) ?
> 2 h

What value of measured half-life at 3 μM is listed for O=C(O)CC(F)(F)C(=O)N1N=C(c2c(-c3ccc(Cl)cc3)c3ccccc3[nH]c2=O)CC1c1ccc(Cl)cc1 (stereo not shown) ?
> 2 h

---

- Protocol description: Liver microsome stability, human
- Format: in vitro ADME
- Cond: human liver microsomes
The reader will find reported microsomal CLint at 3 μM values listed item by item below.

In the examples that follow, each entry is paired with its recorded microsomal CLint at 3 μM.
O=C(O)CCC(=O)N1N=C(c2c(-c3ccc(Cl)cc3)c3ccccc3[nH]c2=O)CC1c1ccc(Cl)cc1 (stereo not shown): < 23 µL/min/mg
O=C(CC(F)(F)C(=O)N1N=C(c2c(-c3ccc(Cl)cc3)c3ccccc3[nH]c2=O)CC1c1ccc(Cl)cc1)OCc1ccccc1 (stereo not shown): 105 µL/min/mg
NC(=O)CC(F)(F)C(=O)N1N=C(c2c(-c3ccc(Cl)cc3)c3ccccc3[nH]c2=O)CC1c1ccc(Cl)cc1 (stereo not shown): < 23 µL/min/mg

Next compound, microsomal CLint at 3 μM to be filled in.
What value of measured microsomal CLint at 3 μM is listed for O=C(O)CC(F)(F)C(=O)N1N=C(c2c(-c3ccc(Cl)cc3)c3ccccc3[nH]c2=O)CC1c1ccc(Cl)cc1 (stereo not shown) ?
< 23 µL/min/mg

---

- Protocol description: Liver microsome stability, human
- Assay type: in vitro ADME
- Cond: liver microsomes, incubation up to 30 min, 3 μM, read-out: liver microsome stability T1/2, human
Measured property: half-life at 3 μM

In the examples that follow, each entry is paired with its recorded half-life at 3 μM.
NC(=O)CC(F)(F)C(=O)N1N=C(c2c(-c3ccc(Cl)cc3)c3ccccc3[nH]c2=O)CC1c1ccc(Cl)cc1 (centres unmarked) [2k]: > 30 min
CNC(=O)CC(F)(F)C(=O)N1N=C(c2c(-c3ccc(Cl)cc3)c3ccccc3[nH]c2=O)CC1c1ccc(Cl)cc1 (centres unmarked) [2q]: ≤ 7 min
O=C(O)CC(F)(F)C(=O)N1N=C(c2c(-c3ccc(Cl)cc3)c3ccccc3[nH]c2=O)CC1c1ccc(Cl)cc1 (centres unmarked) [2i]: > 30 min

What value of measured half-life at 3 μM is listed for O=C(O)CCC(=O)N1N=C(c2c(-c3ccc(Cl)cc3)c3ccccc3[nH]c2=O)CC1c1ccc(Cl)cc1 (centres unmarked) [2a] ?
> 30 min

What value of measured half-life at 3 μM is listed for CN(C)C(=O)CC(F)(F)C(=O)N1N=C(c2c(-c3ccc(Cl)cc3)c3ccccc3[nH]c2=O)CC1c1ccc(Cl)cc1 (centres unmarked) [2r] ?
≤ 7 min
